Ref: ChEMBL document CHEMBL2074164

Study System: Solute carrier organic anion transporter family member 1B1 (Homo sapiens)
Sequence (Q9Y6L6 whole entry): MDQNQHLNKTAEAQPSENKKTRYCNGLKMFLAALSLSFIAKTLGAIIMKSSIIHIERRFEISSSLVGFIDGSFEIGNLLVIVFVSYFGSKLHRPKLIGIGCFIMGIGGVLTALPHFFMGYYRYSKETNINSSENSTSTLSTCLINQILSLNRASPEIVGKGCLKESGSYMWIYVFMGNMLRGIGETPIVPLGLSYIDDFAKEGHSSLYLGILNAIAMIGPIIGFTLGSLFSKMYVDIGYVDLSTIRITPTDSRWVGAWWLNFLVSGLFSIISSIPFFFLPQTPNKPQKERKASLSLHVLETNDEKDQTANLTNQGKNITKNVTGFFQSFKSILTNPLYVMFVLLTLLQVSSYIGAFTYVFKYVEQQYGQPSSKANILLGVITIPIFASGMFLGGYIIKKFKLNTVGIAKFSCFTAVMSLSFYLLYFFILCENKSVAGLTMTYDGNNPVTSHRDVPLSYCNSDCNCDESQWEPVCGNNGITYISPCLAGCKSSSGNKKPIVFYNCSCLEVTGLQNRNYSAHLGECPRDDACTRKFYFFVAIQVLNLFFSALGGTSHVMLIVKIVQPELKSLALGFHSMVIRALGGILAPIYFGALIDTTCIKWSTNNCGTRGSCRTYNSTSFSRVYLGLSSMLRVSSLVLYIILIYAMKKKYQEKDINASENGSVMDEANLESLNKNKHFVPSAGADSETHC
Test Details: TP_TRANSPORTER: inhibition of Phalloidin uptake (Phalloidin: 1 uM) in OATP-C-expressing HEK293 cells
Can you tell me IC50 for the items I'm about to list?

Molecule	IC50
CO[C@H]1C[C@@H]2CC[C@@H](C)[C@@](O)(O2)C(=O)C(=O)N2CCCC[C@H]2C(=O)O[C@H]([C@H](C)C[C@@H]2CC[C@@H](O)[C@H](OC)C2)CC(=O)[C@H](C)/C=C(\C)[C@@H](O)[C@@H](OC)C(=O)[C@H](C)C[C@H](C)/C=C/C=C/C=C/1C [SIROLIMUS]	1100 nM
O=C1OC(c2ccc(O)c(S(=O)(=O)O)c2)(c2ccc(O)c(S(=O)(=O)O)c2)c2c(Br)c(Br)c(Br)c(Br)c21 [SULFOBROMOPHTHALEIN SODIUM]	50 nM

Hello, I would appreciate it if you could give IC50 for each entry below.
1. CC(C)[C@@H]1NC(=O)[C@@H](Cc2ccccc2)NC(=O)[C@H](Cc2ccccc2)NC(=O)[C@@H]2CCCN2C(=O)[C@@H]2CCCN2C(=O)[C@H](Cc2ccccc2)NC(=O)[C@@H](Cc2ccccc2)NC(=O)[C@H](C)NC(=O)[C@@H]2CCCN2C(=O)[C@@H]2CCCN2C1=O [ANTAMANIDE]
2. C=CC[C@@H]1/C=C(\C)C[C@H](C)C[C@H](OC)[C@H]2O[C@@](O)(C(=O)C(=O)N3CCCC[C@H]3C(=O)O[C@H](/C(C)=C/[C@@H]3CC[C@@H](O)[C@H](OC)C3)[C@H](C)[C@@H](O)CC1=O)[C@H](C)C[C@@H]2OC [TACROLIMUS ANHYDROUS]

Output:
1: 1000 nM; 2: 3700 nM
